Target: CNR1 (also known as CB1) (Homo sapiens, UniProt P21554)
Sequence (P21554 whole entry): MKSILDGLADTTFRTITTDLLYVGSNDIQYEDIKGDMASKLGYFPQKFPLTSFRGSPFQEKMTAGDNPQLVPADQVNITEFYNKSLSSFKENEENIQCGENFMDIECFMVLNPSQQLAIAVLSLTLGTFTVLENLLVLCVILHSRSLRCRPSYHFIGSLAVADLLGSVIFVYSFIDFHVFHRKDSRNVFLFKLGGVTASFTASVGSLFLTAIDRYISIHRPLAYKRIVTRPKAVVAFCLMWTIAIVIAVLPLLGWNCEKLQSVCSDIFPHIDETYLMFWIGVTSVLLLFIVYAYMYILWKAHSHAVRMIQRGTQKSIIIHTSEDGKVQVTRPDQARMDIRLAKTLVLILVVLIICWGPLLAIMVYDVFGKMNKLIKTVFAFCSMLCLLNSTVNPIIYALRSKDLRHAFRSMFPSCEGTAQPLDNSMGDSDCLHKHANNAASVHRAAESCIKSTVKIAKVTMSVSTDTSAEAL
Type: cell-based
Set-up: β-galactosidase enzyme fragment (complementation partner)
Conditions: read-out: CNR1 β-Arrestin EC50
Measure: EC50

Using the record for CCCCCc1cc(O)c2c(c1)OC(C)(C)[C@@H]1CCC(CO)=C[C@@H]21 [Example 11-OH-THC] , state its measured EC50.
> 16.7 µM

###

Target: CNR2 (also known as CB2) (Homo sapiens, UniProt P34972)
Sequence (P34972 whole entry): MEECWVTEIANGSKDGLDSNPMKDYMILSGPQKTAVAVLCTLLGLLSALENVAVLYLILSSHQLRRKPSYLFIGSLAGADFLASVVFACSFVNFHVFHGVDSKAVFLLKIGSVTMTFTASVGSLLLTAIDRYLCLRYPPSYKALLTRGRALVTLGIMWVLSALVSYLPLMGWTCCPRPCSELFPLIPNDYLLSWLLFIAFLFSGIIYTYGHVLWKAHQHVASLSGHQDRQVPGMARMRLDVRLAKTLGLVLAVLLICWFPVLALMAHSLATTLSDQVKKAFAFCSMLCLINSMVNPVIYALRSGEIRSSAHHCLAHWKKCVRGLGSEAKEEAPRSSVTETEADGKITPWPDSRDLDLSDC
Assay: cAMP competitive inhibition immunoassay (HitHunter), CNR2
Assay type: cell-based
Conditions: cAMP assay
Measure: EC50
Quick note: number first, unit second.

Using the record for CCCCCc1cc(O)c2c(c1)OC(C)(C)[C@@H]1CCC(CO)=C[C@@H]21 [Example 11-OH-THC] , state its measured EC50.
571 nM

###

Biological target: CNR1 (also known as CB1) (Homo sapiens)
Format: cell-based
Conditions: read-out: CNR1 cAMP EC50
Measure: pEC50
The value called pEC50 is obtained by taking minus log10 of the concentration in mol/L.

Using the record for CCCCCc1cc(O)c2c(c1)OC(C)(C)[C@@H]1CCC(CO)=C[C@@H]21 , state its measured pEC50.
7.97

###

Molecular target: UniProt:P34972
Assay: β-arrestin GPCR assay (PathHunter), CNR2
Assay type: cell-based
Design: β-galactosidase enzyme fragment (complementation partner)
Conditions: β-arrestin recruitment
pEC50: −log10 of the molar value.
Measure: pEC50

Using the record for CCCCCc1cc(O)c2c(c1)OC(C)(C)[C@@H]1CCC(CO)=C[C@@H]21 [Example 11-OH-THC] , state its measured pEC50.
< 4.78
